# assay-target: human IDO1 (Homo sapiens)
# Sequence (P14902 whole entry): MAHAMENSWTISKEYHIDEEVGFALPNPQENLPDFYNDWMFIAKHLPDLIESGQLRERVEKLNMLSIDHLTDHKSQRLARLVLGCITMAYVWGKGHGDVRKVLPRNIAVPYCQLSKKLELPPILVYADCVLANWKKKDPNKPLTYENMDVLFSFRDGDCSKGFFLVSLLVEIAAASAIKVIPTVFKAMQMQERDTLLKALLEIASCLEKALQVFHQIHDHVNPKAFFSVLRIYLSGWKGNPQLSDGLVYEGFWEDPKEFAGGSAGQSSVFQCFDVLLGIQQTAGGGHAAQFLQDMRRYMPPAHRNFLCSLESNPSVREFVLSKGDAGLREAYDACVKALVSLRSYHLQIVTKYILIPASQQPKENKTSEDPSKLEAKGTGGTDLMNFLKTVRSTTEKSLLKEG
# assay-explanation: IDO inhibition assay in HEK293 cells stably expressing human IDO1 (kynurenine production, Ehrlich reagent, absorbance 490 nm)
# test-context: 20 hours incubation with compound, 500 nM reference standard = 100% inhibition, read-out: IDO1 HEK Human IC50
pIC50: −log10 of the molar value.
measurement-name: pIC50

(P) CCCN(Cc1ccccc1)c1cc(NC(=O)Nc2ccc(Cl)cc2F)cc(-c2ccccc2-c2noc(=O)[nH]2)n1
(Q) CCCN(Cc1ccccc1)c1cc(NC(=O)Nc2ccc(OC(F)F)cc2)cc(-c2ccccc2-c2nnn[nH]2)n1
(R) CC(C)CN(Cc1ccccc1)c1cc(NC(=O)Nc2ccc(Cl)cc2Cl)cc(-c2ccccc2-c2nnn[nH]2)n1
# input List the 3 entries from lowest pIC50 to highest pIC50 value. To answer, arrange all of the labels according to the requested order.
# output Q, R, P
(Q: 7.33, R: 7.58, P: 8.15)

(I) CCCN(Cc1ccccc1)c1cc(NC(=O)Nc2ccc(C(F)(F)F)cc2F)cc(-c2ccccc2-c2nnn[nH]2)n1
(II) CCCN(Cc1ccccc1)c1cc(NC(=O)Cc2ccc(C)cc2)cc(-c2ccccc2S(=O)(=O)NC(C)=O)n1
# input Lowest pIC50? choose I or II Reply with the label of the item you choose.
# output II
(II: 6.63, I: 7.36)

Numbers sourced from patent US12059420B2.
